- method.summary: Kidney function, BUN, urine protein to creatinine ratio in cynomolgus monkeys (Example 46)
- Format: in vivo
- reported.conditions: Day 31
Strand notation (5' to 3'): a small letter for the sugar, then the base; units joined by * are phosphorothioate-linked, units joined directly phosphodiester-linked; [ ] holds rarer units or linkages, { } end groups; capitals alone tell only the bases. e = 2'-O-(2-methoxyethyl) (MOE); [5mC] = 5-methylcytosine; d = 2'-deoxy (DNA)
property.measured: BUN levels

{"substance": "ISIS 449710: 3-8-3, 4-8-4, 2-10-2, 3-10-3 or 4-10-4 MOE microwalk gapmer (Table 46) (antisense e[5mC]*eA*e[5mC]*dA*dG*dT*dT*dT*d[5mC]*dT*dG*dG*d[5mC]*eA*eG*eG)", "value.reported": "19 mg/dL"}

**Q:** Dear colleague, please send me the reported BUN levels for ISIS 416858: MOE gapmer, nucleobases 1275 to 1318 of SEQ ID NO: 1 (Table 8) (antisense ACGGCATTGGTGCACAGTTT; MOE gapmer, wing and gap sizes not given here) when you can.
**A:** 23 mg/dL

**Q:** Dear colleague, please send me the reported BUN levels for ISIS 449711: 3-8-3, 4-8-4, 2-10-2, 3-10-3 or 4-10-4 MOE microwalk gapmer (Table 46) (antisense eA*e[5mC]*dA*dG*dT*dT*dT*d[5mC]*dT*dG*dG*d[5mC]*eA*eG) when you can.
**A:** 20 mg/dL

**Q:** Dear colleague, please send me the reported BUN levels for ISIS 449709: 3-8-3, 4-8-4, 2-10-2, 3-10-3 or 4-10-4 MOE microwalk gapmer (Table 46) (antisense eG*e[5mC]*eA*e[5mC]*dA*dG*dT*dT*dT*d[5mC]*dT*dG*dG*d[5mC]*eA*eG*eG*e[5mC]) when you can.
**A:** 20 mg/dL

**Q:** Dear colleague, please send me the reported BUN levels for ISIS 449708: 3-8-3, 4-8-4, 2-10-2, 3-10-3 or 4-10-4 MOE microwalk gapmer (Table 46) (antisense eA*e[5mC]*eA*dG*dT*dT*dT*d[5mC]*dT*dG*dG*e[5mC]*eA*eG) when you can.
**A:** 23 mg/dL

**Q:** Dear colleague, please send me the reported BUN levels for ISIS 416850: MOE gapmer, nucleobases 1275 to 1318 of SEQ ID NO: 1 (Table 8) (antisense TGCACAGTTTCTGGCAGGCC; MOE gapmer, wing and gap sizes not given here) when you can.
**A:** 21 mg/dL
